details: pH 6.8
Label scheme for aqueous solubility: lower than 0.02 mg/mL is not met, 0.02 mg/mL and above is met.

Here are 3 compounds together with their reported answers.
>>> print(df.to_string())
                                test_smiles  category_label
0  Cc1cc(C)c(-c2csc(NC(=O)Cn3cnnn3)n2)c(C)c1         not met
1  O=C(NCc1ccc(F)cc1)C1CCN(C(=O)/C=C/c2ccccc2)CC1         not met
2            CCCc1nnc(NCc2cn3ccc(C)cc3n2)o1             met

For the next question, use this compound.
[Q] Record COc1ccc(/C=C/C(=O)c2c(C)nc3ccccc3c2N)cc1 ; criterion: aqueous solubility no lower than 0.02 mg/mL. Met?
[A] met

###

In this section we review reported log10 of intrinsic clearance, human liver microsomes values for a set of molecules.
Response schema: value (number) is log10 of intrinsic clearance, human liver microsomes in units of mL/min/kg.

In [3]: df
Out[3]:
                         molecule  value
0  Cc1cc(C)nc(NCc2cnc(C)c(C)c2)n1   1.10

[Q] Please report the recorded log10 of intrinsic clearance, human liver microsomes for CC(C)[C@H](Nc1ncc(Cl)cn1)C(=O)N1CCCC1 .
[A] 1.19

[Q] Please report the recorded log10 of intrinsic clearance, human liver microsomes for O=C(Nc1cncc(Cl)c1Cl)c1cccc(-n2cccn2)n1 .
[A] 2.00

[Q] Please report the recorded log10 of intrinsic clearance, human liver microsomes for COc1ccc(CNCc2cccc3ccccc23)cc1 .
[A] 2.29

###

In this section we review reported aqueous solubility values for a set of compounds.
conditions: pH 6.8
# value in µg/mL; strip the unit string

Worked examples, 3 compounds total:
                                   compound  value
0  Cc1ccc(S(=O)(=O)N2CCC[C@H](C(=O)NC3CCOCC3)C2)cc1   54.1
1  CC(=O)N1CCC(Nc2ncnc3cc(-c4ccc(Br)cc4)sc23)CC1   10.2
2  COc1cc(OC)cc(-c2nnc(SCC(=O)Nc3cccc(C(=O)O)c3)s2)c1     39

// switching to the query compound
[Q] Please report the recorded aqueous solubility for O=c1[nH]c2ccccc2n1C1CCN(Cc2nnc(-c3cc4c(s3)CCCC4)o2)CC1 .
[A] 2.45

###

In this section we review reported intrinsic clearance, human liver microsomes values for a set of compounds.
# value in mL/min/kg; strip the unit string

Worked examples, 5 compounds total:
>>> df
                                   compound  value
0  Cc1nc(-c2ccc(S(=O)(=O)N(C)C)cc2)cc(C(C)C)n1   34.6
1  CC(C)(C)c1cc(NC(=O)c2cccc3cn[nH]c23)[nH]n1   9.85
2          CCc1nc2ccccc2n1CC(=O)Nc1ncc(C)s1   8.53
3  COc1ccc(Cc2cccc(C3CCN(C(=O)C4CCCC4)CC3)n2)cc1    114
4     COc1nccnc1N1CCC(C(=O)Nc2cccc(F)c2)CC1    182

[Q] Please report the recorded intrinsic clearance, human liver microsomes for O=c1c2cccn2c2ccccc2n1CCCN1CCC(c2ccc(Cl)cc2)CC1 .
[A] 183

[Q] Please report the recorded intrinsic clearance, human liver microsomes for CCC(=O)N1CCCc2cc(C(O)CN3CCN(c4ccc(OC)cc4)CC3)ccc21 (stereo not given) .
[A] 167

[Q] Please report the recorded intrinsic clearance, human liver microsomes for Cc1cc(C)cc(C(=O)Nc2nn(C(C)(C)C)cc2C#N)c1 .
[A] 11.2

[Q] Please report the recorded intrinsic clearance, human liver microsomes for CCCn1cc(CN2CCC(c3nc(N(C)C)no3)CC2)cn1 .
[A] 21

[Q] Please report the recorded intrinsic clearance, human liver microsomes for Cc1cc(C)n(-c2ccc(CNC(=O)c3ccc4c(c3)CCO4)cn2)n1 .
[A] 11.4

[Q] Please report the recorded intrinsic clearance, human liver microsomes for CCc1c(N)cnn1-c1ccccc1C .
[A] 8.11

[Q] Please report the recorded intrinsic clearance, human liver microsomes for Cc1csc(N2CCN(Cc3ccc(OCC(F)(F)F)nc3)CC2)n1 .
[A] 22.7
